Each entry below lists one item and its recorded log10 IC50 value.
# System under test: recombinant human VAP-1 (Homo sapiens)
# Construct: purchased R&D systems
# Sequence (Q16853 1-763): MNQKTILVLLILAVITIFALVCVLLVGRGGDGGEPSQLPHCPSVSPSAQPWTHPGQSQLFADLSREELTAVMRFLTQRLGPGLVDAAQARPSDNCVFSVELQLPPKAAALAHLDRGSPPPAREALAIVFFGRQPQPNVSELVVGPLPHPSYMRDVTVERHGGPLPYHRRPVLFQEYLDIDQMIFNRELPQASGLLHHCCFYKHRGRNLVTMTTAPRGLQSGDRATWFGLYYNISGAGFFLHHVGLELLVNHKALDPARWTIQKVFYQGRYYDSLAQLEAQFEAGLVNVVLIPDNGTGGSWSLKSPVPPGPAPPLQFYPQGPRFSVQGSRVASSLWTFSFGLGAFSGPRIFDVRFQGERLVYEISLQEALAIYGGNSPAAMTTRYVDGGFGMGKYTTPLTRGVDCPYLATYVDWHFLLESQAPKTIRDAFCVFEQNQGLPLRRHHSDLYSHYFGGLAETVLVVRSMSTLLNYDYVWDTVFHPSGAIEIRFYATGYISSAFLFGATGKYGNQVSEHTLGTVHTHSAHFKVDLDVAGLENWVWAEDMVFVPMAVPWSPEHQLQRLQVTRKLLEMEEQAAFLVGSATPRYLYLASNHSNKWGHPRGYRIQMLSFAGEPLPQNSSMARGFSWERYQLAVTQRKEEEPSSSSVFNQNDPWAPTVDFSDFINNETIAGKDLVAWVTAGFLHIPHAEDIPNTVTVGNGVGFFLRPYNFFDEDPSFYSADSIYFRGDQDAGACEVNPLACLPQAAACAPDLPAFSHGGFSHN
# Assay summary: Activity on recombinant human VAP-1, HRP-coupled Amplex Red hydrogen peroxide assay
# Assay type: biochemical
# Reported conditions: substrate 1 mM benzylamine; compound incubated with enzyme at 37° C. for 30 minutes; pH 7.4; read-out: Inhibitory Activity (IC50, nM) human VAP-1
Where a name gives a salt, the structure may show the parent alone.
Parameter value (number): base-10 log of IC50 in nM.

Input NC/C(=C\F)Cn1ncn(Cc2cc3cc(-c4ccc5c(c4)OCO5)ccc3s2)c1=O [Example 207] . Output log10 IC50: 0.58

Input CS(=O)(=O)c1ccc(-c2ccc(CCn3cnn(C/C(=C/F)CN)c3=O)s2)cc1 [Example 216] . Output log10 IC50: -0.30

Input NC/C(=C\F)Cn1ncn(Cc2ccc(C#CCN3CCS(=O)(=O)CC3)s2)c1=O [Example 132, hydrochloride] . Output log10 IC50: 0.49
